Overview of recorded fold change for various compounds
# assayMethodText: modulation of TERT promoter-driven luciferase – cell-based, luciferase reporter, human, primary screen (AID 1259240)
# assayContext: A2780 TERT promoter luciferase reporter, 16 h; at 20 µM, fold versus average of vehicle-only wells
readout: fold change

{"compound": "CCOC(=O)N1CCC(Nc2c(N(C)C3CCCCC3)c(=O)c2=O)CC1", "valueObserved": 1.05}
{"compound": "Cc1nc2sc3c(NC4CCCCC4)ncnc3c2c2c1COC(C)(C)C2", "valueObserved": -1.55}
{"compound": "Cn1c(=O)c(=O)n(C)c2cc(S(=O)(=O)N3CCC(C(N)=O)CC3)ccc21", "valueObserved": -1.21}
{"compound": "Cc1ccc(-c2n[nH]c3c2C(c2cccc(O)c2)NC3=O)cc1 (stereo not given)", "valueObserved": -1.62}
{"compound": "CN(CC(=O)NCc1ccco1)S(=O)(=O)c1ccc2c(c1)c(=O)n(C)c(=O)n2C", "valueObserved": -1.15}
